The measured values listed here are drawn from the supplement of paper PMC11061612.

combination Emax reference
Tested on: LS-411N (Colorectal Carcinoma)
RUN DESCRIPTION: combination Emax (second highest fraction inhibited in the dose matrix, 72 h); higher = more inhibition; extreme values may be limits of the assay
// return a plain number; no unit text

// solved cases for combination Emax follow
COMPOUND	combination Emax
CN(CCO)CC[C@H](CSc1ccccc1)Nc1ccc(S(=O)(=O)NC(=O)c2ccc(N3CCC([C@@H](O)c4ccccc4-c4ccc(Cl)cc4)CC3)cc2)cc1S(=O)(=O)C(F)(F)F [AZD4320] + CCN(CCO)CCCOc1ccc2c(Nc3cc(CC(=O)Nc4cccc(F)c4)[nH]n3)ncnc2c1 [AZD2811] (first compound max 1 µM, 7x7, partner max 1 µM)	0.567
CC(=O)c1c(C)c2cnc(Nc3ccc(N4CCNCC4)cn3)nc2n(C2CCCC2)c1=O [Palbociclib] + Cn1cnc2c(F)c(Nc3ccc(Br)cc3Cl)c(C(=O)NOCCO)cc21 [Selumetinib] (first compound max 10 µM, 7x7, partner max 10 µM)	0.715

Now examine the next entry.
# get_value(readout= combination Emax, system= LS-411N (Colorectal Carcinoma)) for CC1(C)CCC(CN2CCN(c3ccc(C(=O)NS(=O)(=O)c4ccc(NCC5CCOCC5)c([N+](=O)[O-])c4)c(Oc4cnc5[nH]ccc5c4)c3)CC2)=C(c2ccc(Cl)cc2)C1 [Venetoclax] + C[C@@H](Nc1cc(F)cc(F)c1)c1cc(C(=O)N(C)C)cc2c(=O)cc(N3CCOCC3)oc12 [AZD8186] (first compound max 1 µM, 7x7, partner max 3 µM)
0.343

---

Tested on: CAL-27 (Oral Cavity Carcinoma);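 also: after 72 h of two-drug dosing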
RUN DESCRIPTION: Bliss excess, mean over the matrix (fraction); higher = more synergy
VALUE KIND: Bliss excess
// return a plain number; no unit text

Recorded Bliss excess for COc1cc2ncnc(Nc3ccc(F)c(Cl)c3)c2cc1OCCCN1CCOCC1 [Gefitinib] + CC(C)n1c(=O)n(C)c2cnc3cc(F)c(-c4ccc(OCCCN5CCCCC5)nc4)cc3c21 [AZD1390] (first compound max 10 µM, 7x7, partner max 0.3 µM) , please?
-0.0668

---

combination Emax reference
Tested on: SW620 (Colorectal Carcinoma)
RUN DESCRIPTION: combination Emax (second highest fraction inhibited in the dose matrix, 72 h); higher = more inhibition; extreme values may be limits of the assay
// return a plain number; no unit text

COMPOUND	MEASURED RESULT
Cc1c2c(nn1C)CSCc1cc(n(C)n1)CSc1cc(c3ccccc3c1)OCCCc1c(C(=O)O)n(C)c3c-2c(Cl)ccc13 [AZD5991] + CC(=O)O[C@H]1C(=O)[C@@]2(C)[C@H]([C@H](OC(=O)c3ccccc3)[C@]3(O)C[C@H](OC(=O)[C@H](O)[C@@H](NC(=O)c4ccccc4)c4ccccc4)C(C)=C1C3(C)C)[C@]1(OC(C)=O)CO[C@@H]1C[C@@H]2O [Paclitaxel] (first compound max 1 µM, 7x7, partner max 3 µM)	0.788

Recorded combination Emax for CN(CCO)CC[C@H](CSc1ccccc1)Nc1ccc(S(=O)(=O)NC(=O)c2ccc(N3CCC([C@@H](O)c4ccccc4-c4ccc(Cl)cc4)CC3)cc2)cc1S(=O)(=O)C(F)(F)F [AZD4320] + CCN(CCO)CCCOc1ccc2c(Nc3cc(CC(=O)Nc4cccc(F)c4)[nH]n3)ncnc2c1 [AZD2811] (first compound max 1 µM, 7x7, partner max 1 µM) , please?
0.946

Recorded combination Emax for NC1(C(=O)N[C@@H](CCO)c2ccc(Cl)cc2)CCN(c2ncnc3[nH]ccc23)CC1 [Capivasertib] + C[C@@H]1COCCN1C2=NC(=NC(=C2)C3(CC3)[S@](=N)(=O)C)C4=C5C=CNC5=NC=C4 [AZD6738] (first compound max 10 µM, 7x7, partner max 10 µM) , please?
0.545

Recorded combination Emax for C=CCn1c(=O)c2cnc(Nc3ccc(N4CCN(C)CC4)cc3)nc2n1-c1cccc(C(C)(C)O)n1 [AZD1775] + C[C@@H]1COCCN1C2=NC(=NC(=C2)C3(CC3)[S@](=N)(=O)C)C4=C5C=CNC5=NC=C4 [AZD6738] (first compound max 1 µM, partner max 10 µM) , please?
0.83

Recorded combination Emax for COc1nnc2ccc(N3CCC(c4ccc(OCCN5CCN(C)C(=O)[C@H]5C)cc4)CC3)nn12 [AZD5153] + C=CCn1c(=O)c2cnc(Nc3ccc(N4CCN(C)CC4)cc3)nc2n1-c1cccc(C(C)(C)O)n1 [AZD1775] (first compound max 1 µM, partner max 1 µM) , please?
0.685

Recorded combination Emax for CN(CCO)CC[C@H](CSc1ccccc1)Nc1ccc(S(=O)(=O)NC(=O)c2ccc(N3CCC([C@@H](O)c4ccccc4-c4ccc(Cl)cc4)CC3)cc2)cc1S(=O)(=O)C(F)(F)F [AZD4320] + CC(=O)O[C@H]1C(=O)[C@@]2(C)[C@H]([C@H](OC(=O)c3ccccc3)[C@]3(O)C[C@H](OC(=O)[C@H](O)[C@@H](NC(=O)c4ccccc4)c4ccccc4)C(C)=C1C3(C)C)[C@]1(OC(C)=O)CO[C@@H]1C[C@@H]2O [Paclitaxel] (first compound max 1 µM, 7x7, partner max 3 µM) , please?
1

Recorded combination Emax for Cc1cc2ncnn2cc1Nc1ncc2c(n1)n(C1CCOCC1)c(=O)n2C [AZD7648] + C[C@@H]1COCCN1C2=NC(=NC(=C2)C3(CC3)[S@](=N)(=O)C)C4=C5C=CNC5=NC=C4 [AZD6738] (first compound max 10 µM, 7x7, partner max 10 µM) , please?
0.437

Recorded combination Emax for C[C@@H]1COCCN1c1cc(C2([S@](C)(=N)=O)CC2)nc(-c2ccnc3[nH]ccc23)n1 [AZD6738] + O=C(c1cc(Cc2n[nH]c(=O)c3ccccc23)ccc1F)N1CCN(C(=O)C2CC2)CC1 [Olaparib] (first compound max 10 µM, 7x7, partner max 10 µM) , please?
0.57

Recorded combination Emax for COc1nnc2ccc(N3CCC(c4ccc(OCCN5CCN(C)C(=O)[C@H]5C)cc4)CC3)nn12 [AZD5153] + Cc1c2c(nn1C)CSCc1cc(n(C)n1)CSc1cc(c3ccccc3c1)OCCCc1c(C(=O)O)n(C)c3c-2c(Cl)ccc13 [AZD5991] (first compound max 1 µM, 7x7, partner max 1 µM) , please?
0.512

Recorded combination Emax for CS(=O)(=O)CCNCc1ccc(-c2ccc3ncnc(Nc4ccc(OCc5cccc(F)c5)c(Cl)c4)c3c2)o1 [Lapatinib] + Cn1cnc2c(F)c(Nc3ccc(Br)cc3Cl)c(C(=O)NOCCO)cc21 [Selumetinib] (first compound max 10 µM, 7x7, partner max 10 µM) , please?
0.656

Recorded combination Emax for COc1cccc(OCCCN)c1-c1cc(Nc2cnc(C#N)cn2)n[nH]1 [Prexasertib] + C[C@@H]1COCCN1C2=NC(=NC(=C2)C3(CC3)[S@](=N)(=O)C)C4=C5C=CNC5=NC=C4 [AZD6738] (first compound max 1 µM, 7x7, partner max 10 µM) , please?
0.744

Recorded combination Emax for C[C@@H](Oc1cc(-c2cnn(C3CCNCC3)c2)cnc1N)c1c(Cl)ccc(F)c1Cl [Crizotinib] + Cn1cnc2c(F)c(Nc3ccc(Br)cc3Cl)c(C(=O)NOCCO)cc21 [Selumetinib] (first compound max 10 µM, 7x7, partner max 10 µM) , please?
0.861
